Target: Human STING (Homo sapiens, UniProt Q86WV6, G230A/H232R/R293Q/R71H)
Sequence (Q86WV6 whole entry R71H/G230A/H232R/R293Q): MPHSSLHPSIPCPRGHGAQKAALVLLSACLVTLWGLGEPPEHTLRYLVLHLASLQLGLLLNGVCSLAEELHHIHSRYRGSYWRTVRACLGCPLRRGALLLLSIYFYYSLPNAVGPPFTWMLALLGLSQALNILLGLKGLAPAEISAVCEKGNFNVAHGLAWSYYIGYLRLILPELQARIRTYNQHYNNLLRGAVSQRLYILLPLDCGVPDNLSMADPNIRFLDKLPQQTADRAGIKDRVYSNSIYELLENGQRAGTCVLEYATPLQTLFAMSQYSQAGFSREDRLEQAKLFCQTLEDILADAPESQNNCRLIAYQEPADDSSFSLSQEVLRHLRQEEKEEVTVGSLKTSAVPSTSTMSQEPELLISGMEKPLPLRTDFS
Assay: Reporter gene assay, human STING agonist activity, THP1-Dual cells (HAQ-mutated), IRF pathway
Conditions: THP1-Dual cells IRF EC50, THP1-Dual cells (HAQ-mutated), 24 hours; 100% = maximum count with ML-RR-CDA·2Na+
For each entry below, report its pEC50 value.
Answers are plain numbers, as −log10 of the molar value.

Some solved cases for reference:
Query: Specify measured pEC50 for NCCNc1nc(N)c2ncn([C@@H]3O[C@@H]4COP(=O)(S)O[C@H]5[C@@H](F)[C@H](n6cc7c8c(ncnc86)NCCC7)O[C@@H]5COP(=O)(S)O[C@@H]3[C@@H]4O)c2n1 (single isomer, unassigned) [37b] .
Result: 5.35

Query: Supply measured pEC50 of O=c1c2ncn([C@@H]3O[C@@H]4COP(=O)(S)O[C@H]5[C@@H](O)[C@H](n6cc7c8c(ncnc86)NCCC7)O[C@@H]5COP(=O)(S)O[C@@H]3[C@@H]4O)c2ncn1CCCO (single isomer, unassigned) [26b] in your reply.
Result: 5.92

Query: Quickly give me recorded pEC50 for NCCn1cnc2c(ncn2[C@@H]2O[C@@H]3COP(=O)(S)O[C@H]4[C@@H](O)[C@H](n5cc6c7c(ncnc75)NCCC6)O[C@@H]4COP(=O)(S)O[C@@H]2[C@@H]3F)c1=O (single isomer, unassigned) [40b]
Result: 5.49

Query: Return the recorded pEC50 value; entry: O=c1c2ncn([C@@H]3O[C@@H]4COP(=O)(S)O[C@H]5[C@@H](F)[C@H](n6cc7c8c(ncnc86)NCCC7)O[C@@H]5COP(=O)(O)O[C@@H]3[C@@H]4O)c2ncn1CCO (some centres unmarked) [53a]
Result: 5.22

Query: Please indicate pEC50 recorded for C[C@H]1CCc2cn([C@@H]3O[C@@H]4COP(=O)(S)O[C@@H]5[C@H](O)[C@@H](COP(=O)(S)O[C@H]4[C@H]3O)O[C@H]5n3cnc4c(N)ncnc43)c3ncnc(c23)O1 (single isomer, unassigned) [22b]
Result: 5.37

Report pEC50 for every entry below.
1. O=c1c2ncn([C@@H]3O[C@@H]4COP(=O)(S)O[C@H]5[C@@H](O)[C@H](n6cc7c8c(ncnc86)NCCC7)O[C@@H]5COP(=O)(S)O[C@@H]3[C@@H]4O)c2ncn1CCO (single isomer, unassigned) [6a]
2. O=C(CO)NCCn1cnc2c(ncn2[C@@H]2O[C@@H]3COP(=O)(S)O[C@H]4[C@@H](O)[C@H](n5cc6c7c(ncnc75)NCCC6)O[C@@H]4COP(=O)(S)O[C@@H]2[C@@H]3O)c1=O (single isomer, unassigned) [7a]
3. O=C(CO)NCCn1cnc2c(ncn2[C@@H]2O[C@@H]3COP(=O)(S)O[C@H]4[C@@H](F)[C@H](n5cc6c7c(ncnc75)SCCC6)O[C@@H]4COP(=O)(S)O[C@@H]2[C@@H]3O)c1=O (single isomer, unassigned) [50a]
4. O=P1(S)OC[C@H]2O[C@@H](n3cc4c5c(ncnc53)NCCC4)[C@H](O)[C@@H]2OP(=O)(S)OC[C@H]2O[C@@H](n3cnc4c(CO)ncnc43)[C@H](O1)[C@@H]2O (single isomer, unassigned) [17a]

Result:
[6.22, 5.46, 6.47, 5.36]

For every listed record, write down its pEC50.
1. NCCNc1nc(N)c2ncn([C@@H]3O[C@@H]4COP(=O)(S)O[C@H]5[C@@H](O)[C@H](n6cc7c8c(ncnc86)NCCC7)O[C@@H]5COP(=O)(S)O[C@@H]3[C@@H]4F)c2n1 (single isomer, unassigned) [42a]
2. O=c1c2ncn([C@@H]3O[C@@H]4COP(=O)(S)O[C@H]5[C@@H](F)[C@H](n6cc7c8c(ncnc86)NCCC7)O[C@@H]5COP(=O)(S)O[C@@H]3[C@@H]4O)c2ncn1CCO (single isomer, unassigned) [34b]
3. NCCNc1nc(N)c2ncn([C@@H]3O[C@@H]4COP(=O)(S)O[C@H]5[C@@H](O)[C@H](n6cc7c8c(ncnc86)NCCC7)O[C@@H]5COP(=O)(S)O[C@@H]3[C@@H]4F)c2n1 (single isomer, unassigned) [42b]
4. NCCNc1nc(N)c2ncn([C@@H]3O[C@@H]4COP(=O)(S)O[C@H]5[C@@H](O)[C@H](n6cc7c8c(ncnc86)NCCC7)O[C@@H]5COP(=O)(S)O[C@@H]3[C@@H]4O)c2n1 (single isomer, unassigned) [8b]

Result:
[5.38, 6.26, 5.33, 5.18]

# return pEC50 for each item in the list
1. Nc1nc(CO)nc2c1ncn2[C@@H]1O[C@@H]2COP(=O)(S)O[C@H]3[C@@H](O)[C@H](n4cc5c6c(ncnc64)NCCC5)O[C@@H]3COP(=O)(S)O[C@@H]1[C@@H]2O (single isomer, unassigned) [12b]
2. Nc1ncnc2c1ncn2[C@@H]1O[C@@H]2COP(=O)(S)O[C@H]3[C@@H](O)[C@H](n4cc5c6c(ncnc64)OCCC5)O[C@@H]3COP(=O)(S)O[C@@H]1[C@@H]2O (single isomer, unassigned) [20b]

Result:
1. 5.74
2. 6.40

Hello, I would appreciate it if you could give pEC50 for each entry below.
1. CC(C)(N)CNc1nc(N)c2ncn([C@@H]3O[C@@H]4COP(=O)(S)O[C@H]5[C@@H](O)[C@H](n6cc7c8c(ncnc86)NCCC7)O[C@@H]5COP(=O)(S)O[C@@H]3[C@@H]4O)c2n1 (single isomer, unassigned) [10a]
2. O=c1c2ncn([C@@H]3O[C@@H]4COP(=O)(S)O[C@H]5[C@@H](O)[C@H](n6cc7c8c(ncnc86)NCCC7)O[C@@H]5COP(=O)(S)O[C@@H]3[C@@H]4O)c2ncn1CCO (single isomer, unassigned) [6b]

Result:
1. 5.20
2. 5.68
